tgt: UniProt:P51677
Sequence (P51677 whole entry): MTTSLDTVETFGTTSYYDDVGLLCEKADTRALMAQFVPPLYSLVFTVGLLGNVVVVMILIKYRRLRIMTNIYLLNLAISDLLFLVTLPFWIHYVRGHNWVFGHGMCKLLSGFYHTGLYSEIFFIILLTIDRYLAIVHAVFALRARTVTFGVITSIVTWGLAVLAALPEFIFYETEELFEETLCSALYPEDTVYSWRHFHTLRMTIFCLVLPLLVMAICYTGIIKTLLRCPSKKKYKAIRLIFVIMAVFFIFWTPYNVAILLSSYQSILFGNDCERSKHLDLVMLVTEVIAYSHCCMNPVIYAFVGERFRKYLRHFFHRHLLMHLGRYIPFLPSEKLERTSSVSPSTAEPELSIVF
method.notes: Figure S2a opioid peptide screen on chemokine receptors
Design: dose or concentration left out as unconfirmed
condition.info: read-out: CCR3 activity, ctrl+ = 100, Figure S2a; replicate 1
readout: activation (%)
Value expressed in %; do not type the unit.

# smiles.notation, activation [%]
measured = [
    ("CC[C@H](C)[C@H](NC(=O)[C@H](CCCNC(=N)N)NC(=O)[C@H](CCCNC(=N)N)NC(=O)[C@H](CC(C)C)NC(=O)[C@H](Cc1ccccc1)NC(=O)CNC(=O)CNC(=O)[C@@H](N)Cc1ccc(O)cc1)C(=O)N[C@@H](CCCNC(=N)N)C(=O)N1CCC[C@H]1C(=O)N[C@@H](CCCCN)C(=O)N[C@@H](CC(C)C)C(=O)N[C@@H](CCCCN)C(=O)O", 5.05),
]

Attention now shifts to the item below.
Query the reported activation for UniProt:P51677; item: CC[C@H](C)[C@H](NC(=O)[C@H](CCCNC(=N)N)NC(=O)[C@H](CCCNC(=N)N)NC(=O)[C@H](CC(C)C)NC(=O)[C@H](Cc1ccccc1)NC(=O)CNC(=O)CNC(=O)[C@@H](N)Cc1ccc(O)cc1)C(=O)N[C@@H](CCCNC(=N)N)C(=O)N1CCC[C@H]1C(=O)N[C@@H](CCCCN)C(=O)N[C@@H](CC(C)C)C(=O)N[C@@H](CCCCN)C(=O)N[C@@H](Cc1c[nH]c2ccccc12)C(=O)N[C@@H](CC(=O)O)C(=O)N[C@@H](CC(N)=O)C(=O)N[C@@H](CCC(N)=O)C(=O)O 33.4

----------
tgt: CCR4 (Homo sapiens, UniProt P51679)
Construct: expressed in transfected cells
Sequence (P51679 whole entry): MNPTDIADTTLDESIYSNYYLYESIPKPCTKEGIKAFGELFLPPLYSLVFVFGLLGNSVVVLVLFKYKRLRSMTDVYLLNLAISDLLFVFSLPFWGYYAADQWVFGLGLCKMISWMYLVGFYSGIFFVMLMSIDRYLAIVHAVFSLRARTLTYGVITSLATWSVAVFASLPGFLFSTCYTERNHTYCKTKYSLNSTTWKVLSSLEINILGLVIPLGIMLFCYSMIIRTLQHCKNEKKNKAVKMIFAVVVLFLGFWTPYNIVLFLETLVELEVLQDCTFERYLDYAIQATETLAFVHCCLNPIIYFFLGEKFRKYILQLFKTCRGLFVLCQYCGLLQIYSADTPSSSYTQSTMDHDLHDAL
method.notes: Figure S2a opioid peptide screen on chemokine receptors
Type: cell-based
Set-up: dose or concentration left out as unconfirmed
condition.info: replicate 1, read-out: CCR4 activity, ctrl+ = 100
Starred links: 1 amine or outer side, 2 acyl side, 3 side chain; linkers in the order of their positions; H or OH if unused. Non-standard residues stand in square brackets, D forms with d. Residues, ends and D or L forms follow the SMILES beside them. X1 = N[C@@H](Cc1ccccc1)CN(CC(=O)[*:2])[*:1]
Below: a set of entries, each annotated with reported activation.
Value expressed in %; do not type the unit.

# compound, activation (%)
data = [
    ("C[C@H](NC(=O)CNC(=O)[C@@H](NC(=O)[C@H](Cc1ccccc1)NC(=O)CNC(=O)CNC(=O)[C@@H](N)Cc1ccccc1)[C@@H](C)O)C(=O)N[C@@H](CCCNC(=N)N)C(=O)N[C@@H](CCCCN)C(=O)N[C@@H](CO)C(=O)N[C@@H](C)C(=O)N[C@@H](CCCNC(=N)N)C(=O)N[C@@H](CCCCN)C(N)=O", -0.0637),
    ("CSCC[C@H](NC(=O)[C@H](Cc1ccccc1)NC(=O)CNC(=O)CNC(=O)[C@@H](N)Cc1ccc(O)cc1)C(=O)N[C@@H](CCCNC(=N)N)C(=O)N[C@@H](CCCNC(=N)N)C(=O)N[C@H](C(N)=O)C(C)C", -4.72),
    ("CC(C)C[C@H](NC(=O)[C@H](Cc1ccccc1)NC(=O)CNC(=O)CNC(=O)[C@@H](N)Cc1ccc(O)cc1)C(=O)N[C@@H](CCCN=C(N)N)C(=O)N[C@@H](CCCN=C(N)N)C(=O)N[C@@H](CCC(N)=O)C(=O)N[C@@H](Cc1ccccc1)C(=O)N[C@@H](CCCCN)C(=O)N[C@H](C(=O)N[C@H](C(=O)N[C@H](C(=O)O)[C@@H](C)O)C(C)C)C(C)C", -1.26),
]

Attention now shifts to the item below.
Given the entry C[C@H](NC(=O)CNC(=O)[C@@H](NC(=O)[C@H](Cc1ccccc1)NC(=O)CNC(=O)CNC[C@@H](N)Cc1ccccc1)[C@@H](C)O)C(=O)N[C@@H](CCCNC(=N)N)C(=O)N[C@@H](CCCCN)C(=O)N[C@@H](CO)C(=O)N[C@@H](C)C(=O)N[C@@H](CCCNC(=N)N)C(=O)N[C@@H](CCCCN)C(N)=O [FG Nociceptin 1-13] (H-[X1]GFTGARKSARK-NH2) , report its measured activation. -0.803
